Provenance of the data: patent US7812142B2

# test.name: Half-life of D-xylose measured in rats
# test.settings: rat, in vivo
measured.parameter: half-life

molecule | result
O=C[C@H](O)[C@@H](O)[C@H](O)CO [D-xylose] | 30 to 60 min

###

# Tested on: glucose uptake in cultured cells
# test.name: In vitro glucose uptake / hexose transport in cultured cells with xylose derivatives (Table 2)
# Assay type: cell-based
# test.settings: EC = Effective concentration
measured.parameter: log10 of ECmax (log10 of the value in mM)

compound | tested.system | log10 of ECmax
CCCO[C@@H]([C@H](O)CO)[C@@H](O)C=O [EH-114, 3-O-propyl-D-xylose] | glucose uptake in cultured cells | 0.65
COC(OC)[C@@H]1OC(c2ccccc2)O[C@@H]2COC(c3ccccc3)O[C@@H]21 (some centres unmarked) [EH-3] | glucose uptake in cultured cells | -0.52
O=C[C@H](O)[C@@H](O)[C@H](O)CO [D-xylose] | glucose uptake in cultured cells | 1.30
CO[C@H]1[C@H](O)COC(O)[C@@H]1O (some centres unmarked) [3-O-methyl xylopyranose] | glucose uptake in cultured cells | 0.60
COC1OC[C@@H](O)[C@H](OC)[C@H]1O (some centres unmarked) [EH-101, 1,3-O-dimethyl xylopyranoside] | glucose uptake in cultured cells | 0.60
CCSC(SCC)[C@@H]1OC(c2ccccc2)O[C@@H]2COC(c3ccccc3)O[C@@H]21 (some centres unmarked) [EH-36] | glucose uptake in cultured cells | -2.00
CCO[C@@H]([C@H](O)CO)[C@@H](O)C=O [3-O-ethyl D-xylose] | glucose uptake in cultured cells | 0.60
COC1OC[C@@H](O)[C@H](O)[C@H]1O (some centres unmarked) [1-O-methyl xylopyranoside] | glucose uptake in cultured cells | 1.00
